SUBJECT_OF_TEST: Rn myosin-9b (Myo9b) (Rattus norvegicus, UniProt Q63358)
Construct: motor domain construct
Sequence (Q63358 2-954): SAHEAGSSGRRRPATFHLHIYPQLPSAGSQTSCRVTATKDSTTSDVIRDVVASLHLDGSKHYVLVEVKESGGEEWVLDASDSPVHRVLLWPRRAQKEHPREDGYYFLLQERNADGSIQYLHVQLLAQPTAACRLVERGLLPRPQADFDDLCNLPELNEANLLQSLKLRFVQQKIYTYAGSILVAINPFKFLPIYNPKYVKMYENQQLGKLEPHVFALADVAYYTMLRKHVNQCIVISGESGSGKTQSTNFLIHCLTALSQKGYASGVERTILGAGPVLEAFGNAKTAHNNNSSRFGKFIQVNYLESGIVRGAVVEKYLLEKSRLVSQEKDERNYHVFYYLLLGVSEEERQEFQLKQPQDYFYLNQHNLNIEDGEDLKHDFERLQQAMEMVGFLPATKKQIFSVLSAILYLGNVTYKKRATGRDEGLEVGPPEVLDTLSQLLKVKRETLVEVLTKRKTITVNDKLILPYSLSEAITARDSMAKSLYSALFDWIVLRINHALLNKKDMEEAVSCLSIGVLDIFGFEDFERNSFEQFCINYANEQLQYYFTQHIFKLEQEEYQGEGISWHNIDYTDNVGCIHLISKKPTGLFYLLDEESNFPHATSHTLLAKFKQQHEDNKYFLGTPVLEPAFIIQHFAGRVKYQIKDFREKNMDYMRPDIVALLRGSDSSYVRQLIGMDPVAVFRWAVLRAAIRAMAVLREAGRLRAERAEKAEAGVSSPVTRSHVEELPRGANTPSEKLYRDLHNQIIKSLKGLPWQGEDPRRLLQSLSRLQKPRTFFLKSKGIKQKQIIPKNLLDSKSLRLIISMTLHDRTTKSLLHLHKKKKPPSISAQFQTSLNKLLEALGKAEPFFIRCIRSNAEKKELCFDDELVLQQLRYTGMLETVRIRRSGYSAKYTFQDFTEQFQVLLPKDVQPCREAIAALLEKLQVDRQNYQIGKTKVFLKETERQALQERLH
PROTOCOL_DETAILS: NADH-coupled basal and actin-activated ATPase assay
Format: biochemical
MEASURED_ENDPOINT: pIC50
Numbers only, as −log10 of the molar value.

## Input # pIC50 lookup, item OCc1cc(Br)cc2c1[nH]c1ccc(Br)cc12 [compound 12, 3,6-dibromo-1-(hydroxymethyl)carbazole]
## Output 5.60

---

SUBJECT_OF_TEST: Dd myosin-2 (DdMyo2) (Dictyostelium discoideum)
Construct: gene mhcA; motor domain
Sequence (P08799 2-762): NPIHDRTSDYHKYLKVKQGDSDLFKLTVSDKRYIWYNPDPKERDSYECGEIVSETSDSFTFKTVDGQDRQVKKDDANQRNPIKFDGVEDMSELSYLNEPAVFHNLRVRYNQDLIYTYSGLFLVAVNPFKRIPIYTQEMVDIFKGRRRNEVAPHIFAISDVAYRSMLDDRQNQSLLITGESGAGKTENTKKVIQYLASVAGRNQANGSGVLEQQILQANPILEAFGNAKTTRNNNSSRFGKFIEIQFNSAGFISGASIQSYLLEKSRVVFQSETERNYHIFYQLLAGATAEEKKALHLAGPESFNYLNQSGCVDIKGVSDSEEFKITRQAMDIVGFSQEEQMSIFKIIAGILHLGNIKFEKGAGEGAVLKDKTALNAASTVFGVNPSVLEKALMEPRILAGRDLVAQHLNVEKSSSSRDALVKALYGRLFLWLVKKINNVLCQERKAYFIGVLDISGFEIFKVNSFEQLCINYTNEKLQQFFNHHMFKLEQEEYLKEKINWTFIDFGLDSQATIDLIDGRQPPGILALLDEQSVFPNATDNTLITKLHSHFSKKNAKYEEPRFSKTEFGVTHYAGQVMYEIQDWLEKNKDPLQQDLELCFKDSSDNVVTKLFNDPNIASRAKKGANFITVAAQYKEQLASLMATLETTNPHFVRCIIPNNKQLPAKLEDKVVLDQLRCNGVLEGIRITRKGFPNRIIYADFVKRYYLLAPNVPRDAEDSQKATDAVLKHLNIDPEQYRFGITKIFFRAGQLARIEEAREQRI
PROTOCOL_DETAILS: biochemical
Set-up: inhibition of myosin ATPase activity
EXPERIMENTAL_SETUP: read-out: IC50
MEASURED_ENDPOINT: pIC50
Answers are plain numbers, as −log10 of the molar value.

## Input Item OCc1cc(Br)cc2c1[nH]c1ccc(Br)cc12 [compound 12, 3,6-dibromo-1-(hydroxymethyl)carbazole] has what recorded pIC50?
## Output 4.42
